# system-under-test: UniProtKB P05067
# Sequence (P05067 672-713): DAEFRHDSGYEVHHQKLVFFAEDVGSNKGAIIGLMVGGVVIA
# test-method-notes: Th-T (thioflavin-T) assay of Aβ42 aggregation
# Assay type: biochemical
# recorded-conditions: concentration 20, unit not given; time-course reading M134
experimental-readout: Th-T fluorescence of Aβ42 with compound, mean of three wells (Fig. 7a source data)
Kindly provide the number alone.

Example cases with answers are listed next.
// query What does the record list as Th-T fluorescence of Aβ42 with compound, mean of three wells (Fig. 7a source data) for C=C1CCC2C(C)(CCC=C(C)C)C(O)CCC2(C)C1Cc1c(OC)oc(CO)c(C(=O)OC)c1=O (centres unmarked) ?
// result 1.029

// query Would you kindly repeat that for C=C1CC[C@@H]2[C@](C)(CC[C@H]3O[C@H](C=C(C)C)C[C@@]23C)[C@@H]1Cc1c(OC)oc(CO)c(C(=O)OC)c1=O ?
// result 0.9622

// query Would you kindly repeat that for C=C1CC[C@@H]2[C@](C)(CC[C@H]3O[C@H](C=C(C)C)C[C@@]23C)[C@@H]1Cc1c(OC)oc(CO)c(C)c1=O ?
// result 3.073

// query Would you kindly repeat that for C=C1CCC2C(C)(CCC=C(C)C)C(O)CCC2(C)C1Cc1c(OC)oc(CO)c(C)c1=O (centres unmarked) ?
// result 2.215

# input for lookup
// query What does the record list as Th-T fluorescence of Aβ42 with compound, mean of three wells (Fig. 7a source data) for C=C1CCC2C(C)(CCC=C(C)C)C(O)CCC2(C)C1Cc1c(OC)oc(C)c(C(=O)OC)c1=O (centres unmarked) ?
// result 1.594
